Exercise: for every item that follows, state its recorded activity, negative = inhibition.
- Test system: Histone-lysine N-methyltransferase EHMT2 (Homo sapiens) (UniProt Q96KQ7)
- Sequence (Q96KQ7 913-1193 limits assumed): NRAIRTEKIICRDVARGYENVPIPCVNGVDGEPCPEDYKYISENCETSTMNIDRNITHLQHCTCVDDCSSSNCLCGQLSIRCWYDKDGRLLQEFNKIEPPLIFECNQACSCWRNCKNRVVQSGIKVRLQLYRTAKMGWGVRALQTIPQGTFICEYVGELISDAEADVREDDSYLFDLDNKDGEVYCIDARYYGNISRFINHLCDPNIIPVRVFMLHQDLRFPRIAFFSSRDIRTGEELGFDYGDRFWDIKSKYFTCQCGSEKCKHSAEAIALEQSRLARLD
- Procedure details: qHTS Assay for Inhibitors of Histone Lysine Methyltransferase G9a; also: % is scaled to controls: 0 for no effect and ±100 for the full control effect; nearly all actives have a fitted effect of over 75% in size
- Test conditions: G9a H3K9 monomethylation, AlphaScreen, 2 h; series mostly up to 59 µM
Out of some 350,000 compounds screened, about 31,000 (8.9%) were called active. Roughly 15% stayed inconclusive and do not appear here. The sample holds actives, similar compounds and a random draw of the others, so the mix is not that of the screen.

Problem: Look up activity, negative = inhibition for this molecule: CC1CN(C(=O)COC(=O)c2cccc(NS(=O)(=O)c3ccccc3)c2)CC(C)O1 (stereo not given)
Solution: 3.95% [at 0.501 µM] (inactive)

Problem: Look up activity, negative = inhibition for this molecule: C=CCOC(=O)C1=C(C)OC(N)=C(C#N)C1c1ccc(F)cc1 (stereo not given)
Solution: 14.3% [at 2.33 µM] (inactive)

Problem: Look up activity, negative = inhibition for this molecule: Cc1cc(NC(=O)COc2ccc([N+](=O)[O-])cc2)no1
Solution: -2.93% [at 12.7 µM] (inactive)

Problem: Look up activity, negative = inhibition for this molecule: O=C(COC(=O)c1cc(S(=O)(=O)N2CCOCC2)ccc1Cl)NCCc1ccccc1
Solution: -2.95% [at 12.7 µM] (inactive)

Problem: Look up activity, negative = inhibition for this molecule: N#Cc1cccc(CSc2ncnc(N)n2)c1
Solution: -30.5% [at 2.33 µM] (inactive)

Problem: Look up activity, negative = inhibition for this molecule: CC1CCN(C(=O)COC(=O)c2cc(=O)[nH]c3ccccc23)CC1
Solution: -8.14% [at 12.7 µM] (inactive)

Problem: Look up activity, negative = inhibition for this molecule: Cc1cc(C)c(NC(=O)CN2CCCCCC2)c(C)c1
Solution: 41.6% [at 0.501 µM] (inactive)

Problem: Look up activity, negative = inhibition for this molecule: CCCc1cc(=O)oc2cc(OCC(=O)Nc3ccc(CN4CCOCC4)cc3)c(Cl)cc12
Solution: 3.1% [at 0.501 µM] (inactive)

Problem: Look up activity, negative = inhibition for this molecule: Cc1nnc(Sc2nc3c(c(=O)[nH]c(=O)n3C)n2Cc2ccccc2)s1
Solution: 17.7% [at 12.7 µM] (inactive)

Problem: Look up activity, negative = inhibition for this molecule: O=C(Nc1ccc2c(c1)OCCO2)c1ccc(Cl)c(S(=O)(=O)N2CCCCC2)c1
Solution: -22.9% [at 12.7 µM] (inactive)

Problem: Look up activity, negative = inhibition for this molecule: COC(=O)C1CCN(C(=O)NC2CC(=O)N(c3ccc4c(c3)OCCO4)C2)CC1 (stereo not given)
Solution: 21.6% [at 0.501 µM] (inactive)

Problem: Look up activity, negative = inhibition for this molecule: COc1ccccc1N1CCN(C(=O)c2ccc(S(=O)(=O)N3CCCCC3)cc2)CC1
Solution: -28.9% [at 12.7 µM] (inactive)

Problem: Look up activity, negative = inhibition for this molecule: COc1ccc(NC(=O)c2cc(-c3ccc(C)cc3)on2)cc1
Solution: -5.29% [at 0.501 µM] (inactive)

Problem: Look up activity, negative = inhibition for this molecule: CN(C)CCn1c2c(c(SCC(=O)Nc3ccccc3C(F)(F)F)nc1=O)CCCC2
Solution: 7.38% [at 0.501 µM] (inactive)

Problem: Look up activity, negative = inhibition for this molecule: CCCc1[nH]nc2c1C(c1c(C)nn(-c3ccccc3)c1Cl)C(C#N)=C(N)O2 (stereo not given)
Solution: -26.6% [at 12.7 µM] (inactive)

Problem: Look up activity, negative = inhibition for this molecule: O=C(O)C1C2C=CC(C2)C1C(=O)NCc1ccccc1 (stereo not given)
Solution: 1.59% [at 2.33 µM] (inactive)

Problem: Look up activity, negative = inhibition for this molecule: O=C(COC(=O)C1CC2CCCC(C1)C2=O)NC(=O)c1ccccc1 (stereo not given)
Solution: -4.63% [at 12.7 µM] (inactive)

Problem: Look up activity, negative = inhibition for this molecule: C[C@@H]1NC(=O)[C@@]2(C)[C@@H](c3ccccc3)[C@H]3COc4ccccc4[C@@H]3N2C1=O
Solution: -3.98% [at 0.501 µM] (inactive)

Problem: Look up activity, negative = inhibition for this molecule: COc1ccc(NS(=O)(=O)c2cc(NC(=O)COc3ccccc3F)ccc2OC)cc1
Solution: 30.6% [at 12.7 µM] (inactive)

Problem: Look up activity, negative = inhibition for this molecule: Cc1cccc(C(C)C)c1NC(=O)COC(=O)C1CC(=O)N(Cc2ccccc2)C1 (stereo not given)
Solution: 7.15% [at 0.501 µM] (inactive)

Problem: Look up activity, negative = inhibition for this molecule: COc1ccccc1C(CNC(=O)c1cccc(S(=O)(=O)Nc2ccc(F)cc2)c1)N(C)C (stereo not given)
Solution: 17.4% [at 12.7 µM] (inactive)

Problem: Look up activity, negative = inhibition for this molecule: CSCCC(NC(=O)c1ccccc1)C(=O)N1CCCCCCC1 (stereo not given)
Solution: 35.6% [at 12.7 µM] (inactive)

Problem: Look up activity, negative = inhibition for this molecule: Cc1ccc(-c2cnc(NC(=O)CCC(=O)N(C)Cc3ccccc3)n2C)cc1
Solution: -4.41% [at 12.7 µM] (inactive)

Problem: Look up activity, negative = inhibition for this molecule: CCC1(C)NC(=O)N(CC(=O)N2CCN(c3cccc(Cl)c3)CC2)C1=O (stereo not given)
Solution: 17.9% [at 2.33 µM] (inactive)

Problem: Look up activity, negative = inhibition for this molecule: CC(C(=O)N1CCN(c2ccccc2F)CC1)c1ccc([N+](=O)[O-])cc1 (stereo not given)
Solution: 13.1% [at 0.501 µM] (inactive)

Problem: Look up activity, negative = inhibition for this molecule: Cc1cc(C)cc(N)c1
Solution: 2.02% [at 0.501 µM] (inactive)

Problem: Look up activity, negative = inhibition for this molecule: COc1ccc2c(c1)[C@H]1[C@H](CO2)[C@H](c2ccccc2)[C@]2(C)C(=O)Nc3cc(F)c(F)cc3C(=O)N12
Solution: 5.78% [at 2.33 µM] (inactive)

Problem: Look up activity, negative = inhibition for this molecule: O=C(Nc1nc(-c2ccco2)c(-c2ccco2)s1)c1ccco1
Solution: 16.3% [at 2.33 µM] (inactive)

Problem: Look up activity, negative = inhibition for this molecule: COc1cc2c(cc1OC)[C@@H](Cc1cc(OC)c(OC)c(OC)c1)[N+](C)(CCCOC(=O)CC/C=C/CCC(=O)OCCC[N+]1(C)CCc3cc(OC)c(OC)cc3[C@H]1Cc1cc(OC)c(OC)c(OC)c1)CC2 (stereo not given in full)
Solution: 6.96% [at 12.7 µM] (inactive)

Problem: Look up activity, negative = inhibition for this molecule: O=C(NNC(=O)c1cc(-c2ccccc2Cl)nc2ccccc12)c1csc(N2CCOCC2)n1
Solution: 10% [at 2.33 µM] (inactive)

Problem: Look up activity, negative = inhibition for this molecule: O=C(O[C@@H]1[C@H](Cc2ccccc2)NS(=O)(=O)[C@H]2C[C@@H]3C=C[C@]12O3)c1ccccc1Br
Solution: 6.72% [at 0.501 µM] (inactive)

Problem: Look up activity, negative = inhibition for this molecule: O=C(NCCC1CCCCN1S(=O)(=O)c1cccs1)C(=O)Nc1ccc(F)cc1F (stereo not given)
Solution: -3.33% [at 0.501 µM] (inactive)

Problem: Look up activity, negative = inhibition for this molecule: Nc1nc(SCCOc2ccccc2)n[nH]1
Solution: 1.72% [at 12.7 µM] (inactive)

Problem: Look up activity, negative = inhibition for this molecule: CC1CCCCC12NC(=O)N(CC(=O)Nc1ccc(S(=O)(=O)Nc3ncccn3)cc1)C2=O (stereo not given)
Solution: -10.5% [at 12.7 µM] (inactive)

Problem: Look up activity, negative = inhibition for this molecule: Cc1cc2c(c(=O)n1Cc1ccccc1)C1O[C@](CCCCN3C(=O)c4ccccc4C3=O)(Cc3ccccc31)O2
Solution: -0.249% [at 2.33 µM] (inactive)

Problem: Look up activity, negative = inhibition for this molecule: CCOc1cc(/C=C/C(=O)OCC(=O)NCCN2C(=O)CSC2=O)ccc1OCC(C)C
Solution: 17.6% [at 12.7 µM] (inactive)

Problem: Look up activity, negative = inhibition for this molecule: C=CCNC(=O)COc1coc(CN2CCN(Cc3ccccc3)CC2)cc1=O
Solution: 18.3% [at 0.501 µM] (inactive)

Problem: Look up activity, negative = inhibition for this molecule: COc1ccc(C2/C(=C(/O)c3ccccc3)C(=O)C(=O)N2C)c(OC)c1 (stereo not given)
Solution: -3.6% [at 0.501 µM] (inactive)

Problem: Look up activity, negative = inhibition for this molecule: COc1ccc(Cl)cc1NC(=O)c1oc(C)nc1C
Solution: 10.9% [at 12.7 µM] (inactive)

Problem: Look up activity, negative = inhibition for this molecule: CN(C(=O)COc1ncnc2c1cnn2-c1ccccc1)C1CCCCC1
Solution: 25.1% [at 0.0925 µM] (inactive)

Each recorded value in this set is attributed to PubChem BioAssay AID504332.
